- target of assay: Amine oxidase [flavin-containing] B (Homo sapiens)
- Sequence (P27338 whole entry): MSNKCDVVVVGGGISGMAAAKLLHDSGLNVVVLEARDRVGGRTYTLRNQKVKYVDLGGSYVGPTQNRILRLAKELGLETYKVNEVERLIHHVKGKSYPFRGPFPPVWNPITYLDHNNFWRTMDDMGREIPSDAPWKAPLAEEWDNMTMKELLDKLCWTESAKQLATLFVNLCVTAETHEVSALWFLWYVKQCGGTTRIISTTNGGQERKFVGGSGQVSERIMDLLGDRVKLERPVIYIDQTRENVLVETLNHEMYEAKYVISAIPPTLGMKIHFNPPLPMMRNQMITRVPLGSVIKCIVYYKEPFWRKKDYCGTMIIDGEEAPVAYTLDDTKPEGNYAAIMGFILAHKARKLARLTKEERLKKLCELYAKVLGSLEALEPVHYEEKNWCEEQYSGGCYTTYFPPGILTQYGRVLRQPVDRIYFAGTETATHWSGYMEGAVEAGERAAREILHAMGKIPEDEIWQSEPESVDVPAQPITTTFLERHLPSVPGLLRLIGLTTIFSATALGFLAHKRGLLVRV
- test protocol: Inhibition of recombinant human MAO-B
# IC50 per entry
Field format: number, assumed µM, no unit text.

- C=C(CNN)c1ccccc1.Cl: 71

Now look at this entry.
Task: May I ask what IC50 has been recorded for C=C(CNN)c1ccccc1C ?
Result: 90

Ref: ChEMBL document CHEMBL1146064
